# Test system: PQQ-ADH (1)
# assay.details: Substrate specificity of PQQ-ADH (1)
# Format: biochemical, Pseudogluconobacter saccharoketogenes
# condition: 0.2M substrate, McIlvaine buffer pH 5.0; relative to D-glucose set to be 100
Where a name gives a salt, the structure may show the parent alone.
measurement.label: Relative activity (%)

>>> readout_number("O=C([O-])[C@H](O)[C@@H](O)[C@H](O)[C@H](O)CO.[Na+] [sodium D-gluconate]")
88.6
>>> readout_number("O=C[C@@H](O)[C@@H](O)[C@H](O)[C@@H](O)C(=O)O [sodium salt of intermediate B, L-guluronic acid]")
2.7
>>> readout_number("O=C[C@H](O)[C@@H](O)[C@H](O)[C@H](O)CO [D-glucose]")
100
